pIC50 listing for selected molecules.
# Tested on: HepG2 cells
# test-summary: MTT assay, antiproliferative activity, HepG2
# Assay type: cell-based, human
# setup-conditions: Homo sapiens, HepG2; MTT, 24 h treatment, mean ± SD
pIC50: −log10 of the molar value.

molecule=O=c1n(-c2nc(-c3cccs3)cs2)ncc2cccn12 measured_value="< 4.00"
molecule=O=c1n(-c2nc(-c3ccc(-c4ccccc4)cc3)cs2)ncc2cccn12 measured_value=4.35
molecule="COc1cccc2c1C(=O)c1c(O)c3c(c(O)c1C2=O)C[C@@](O)(C(=O)CO)C[C@@H]3O[C@H]1C[C@H](N)[C@H](O)[C@H](C)O1 [Dox, doxorubicin, reference compound]" measured_value=5.90
molecule=O=c1n(-c2nc(-c3ccc([N+](=O)[O-])cc3)cs2)ncc2cccn12 measured_value="< 4.00"
molecule=O=c1n(-c2nc(-c3ccc4ccccc4c3)cs2)ncc2cccn12 measured_value="< 4.00"
molecule=Cc1ccc(-c2csc(-n3ncc4cccn4c3=O)n2)cc1 measured_value="< 4.00"
molecule=O=c1n(-c2nc(-c3cc4ccccc4o3)cs2)ncc2cccn12 measured_value="< 4.00"
molecule=O=c1n(-c2nc(-c3ccco3)cs2)ncc2cccn12 measured_value="< 4.00"
molecule=O=c1n(-c2nc(-c3ccc(Cl)cc3)cs2)ncc2cccn12 measured_value=4.99
molecule=COc1ccc(-c2csc(-n3ncc4cccn4c3=O)n2)cc1 measured_value="< 4.00"

Reported pIC50 for "Cc1csc(-n2ncc3cccn3c2=O)n1" was < 4.00

The value of pIC50 measured for the molecule "O=c1n(-c2nc(-c3ccc(Cl)c(Cl)c3)cs2)ncc2cccn12" turned out to be 5.14

* * *

pIC50 overview
# System: A549 cells
# test-summary: MTT assay, antiproliferative activity, A549
# Type: cell-based, human
# setup-conditions: Homo sapiens, A549; MTT, 24 h treatment, mean ± SD
# Method: MCF-7 (human ER + breast cancer, HTB-22, USA), A549 (human nonsmall cell lung cancer, ATTC CRM-CCL-185, USA), HepG2 (human liver cancer, ATTC HB-8065, USA), and NIH/3T3 (mouse embryonic fibroblast, ATCC, CRL-1658, USA) cells were maintained in DMEM supplemented with 10% fetal bovine serum and 1% penicillin/streptomycin. […] The antiproliferative activity of the newly synthesized compounds was measured using the MTT assay as described in a previous study. […]
pIC50: −log10 of the molar value.

Reference set (2 entries):
compound_smiles=O=c1n(-c2nc(-c3ccco3)cs2)ncc2cccn12 measured_value="< 4.00"
compound_smiles=O=c1n(-c2nc(-c3ccc([N+](=O)[O-])cc3)cs2)ncc2cccn12 measured_value="< 4.00"

Attention now turns to another entry.
So the reported pIC50 for "COc1ccc(-c2csc(-n3ncc4cccn4c3=O)n2)cc1OC" , on A549 cells, turned out to be 4.36
